molecular target: Ras farnesyl transferase (Homo sapiens, UniProt P49354+P49356); construct: made in house; assay: Ras farnesyl transferase enzyme inhibition, H-Ras substrate; assay type: biochemical; conditions: H-Ras substrate protein; recombinant farnesyl transferase; 30 minutes at 37° C.
pIC50: −log10 of the molar value.
outcome-measure: pIC50

INSERT INTO measurements (record_smiles, test_system, measured_value) VALUES
  ('Cc1ncn(Cc2ccc3ccccc3c2)c1Cn1cc(C(=O)N2CCN(C)CC2)c(-c2cc(Br)cc3ccccc23)c1', 'Ras farnesyl transferase (Homo sapiens, UniProt P49354+P49356)', '> 8.00'),
  ('Cc1ncc(Cn2cc(C(=O)N3CCN(C)CC3)c(-c3cccc4ccccc34)c2)n1CCc1ccccc1', 'Ras farnesyl transferase (Homo sapiens, UniProt P49354+P49356)', '> 8.60'),
  ('Cc1c(C(=O)N2CCN(C)CC2)c(-c2cccc3ccccc23)cn1Cc1cncn1Cc1ccc2c(c1)OCO2', 'Ras farnesyl transferase (Homo sapiens, UniProt P49354+P49356)', '> 8.35'),
  ('COCCN(C)C(=O)c1cn(Cc2cncn2CCCOc2ccccc2)cc1-c1cccc2ccccc12', 'Ras farnesyl transferase (Homo sapiens, UniProt P49354+P49356)', '> 8.00');

----------
biological target: Ras farnesyl transferase (Homo sapiens, UniProt P49354+P49356); construct: made in house; assay: Ras farnesyl transferase enzyme inhibition, H-Ras substrate; type: biochemical; settings: H-Ras substrate protein; recombinant farnesyl transferase; 30 minutes at 37° C.
pIC50: −log10 of the molar value.
outcome-measure: pIC50

INSERT INTO results (compound, outcome_measure, measured_value) VALUES
  ('O=[N+]([O-])c1cn(Cc2cncn2CCc2cccc(Br)c2)cc1-c1cccc2ccccc12 [Example 43]', 'pIC50', '> 8.52'),
  ('O=[N+]([O-])c1cn(Cc2cncn2CCc2ccc(F)cc2)cc1-c1cccc2ccccc12 [Example 42]', 'pIC50', '> 8.38'),
  ('COCCN(C)C(=O)c1cn(Cc2c(C)ncn2CCCOCc2ccccc2)cc1-c1cccc2ccccc12 [Example 30]', 'pIC50', '> 8.30'),
  ('O=[N+]([O-])c1cn(Cc2cncn2Cc2ccc(Cl)cc2)cc1-c1cccc2ccccc12 [Example 37]', 'pIC50', '> 8.24'),
  ('CN1CCN(C(=O)c2cn(Cc3cncn3Cc3ccco3)cc2-c2cccc3ccccc23)CC1 [Example 12]', 'pIC50', '> 8.00'),
  ('COCCN(C)C(=O)c1cn(Cc2c(C)ncn2CCCOCc2ccccc2Cl)cc1-c1cccc2ccccc12 [Example 32]', 'pIC50', '> 8.22'),
  ('CN1CCN(C(=O)c2cn(Cc3cnc(N)n3Cc3ccc4c(c3)OCO4)cc2-c2cccc3ccccc23)CC1 [Example 17]', 'pIC50', '> 8.74'),
  ('COCCN(C)C(=O)c1cn(Cc2cncn2CCc2cccs2)cc1-c1cccc2ccccc12 [Example 10]', 'pIC50', '> 8.00');

----------
molecular target: Ras farnesyl transferase (Rattus norvegicus, UniProt Q02293+Q04631); construct: endogenous in cells; host or cells: Rat2 fibroblasts transformed with C-Harvey-Ras or with the H-Ras/K-Ras polybasic-domain fusion; assay: In vivo (intracellular) Ras farnesylation inhibition in Rat2 cell line expressing C-Harvey-Ras; assay type: cell-based; details: Rat2 cells expressing C-Harvey-Ras; concentration inhibiting 50% of farnesyl binding; read-out: H-Ras CIC50
pIC50: −log10 of the molar value.
outcome-measure: pIC50

INSERT INTO results (record_smiles, measured_value) VALUES
  ('COCCN(C)C(=O)c1cn(Cc2c(C)ncn2CCCOCc2ccccc2Cl)cc1-c1cccc2ccccc12', '> 8.20'),
  ('Cc1ncn(Cc2ccc3c(c2)OCO3)c1Cn1cc(C(=O)N2CCN(C)CC2)c(-c2cc(Br)cc3ccccc23)c1', '> 8.00'),
  ('Cc1ncn(CCCOCc2ccccc2)c1Cn1cc(C(=O)N2CCN(C)CC2)c(-c2cccc3ccccc23)c1', '> 8.20'),
  ('COCCN(C)C(=O)c1cn(Cc2cncn2C2CCN(Cc3ccccc3)CC2)cc1-c1cccc2ccccc12', '> 7.60'),
  ('Cc1ncc(Cn2cc(C(=O)N3CCN(C)CC3)c(-c3cccc4ccccc34)c2)n1CCc1ccccc1', '> 8.60'),
  ('CN1CCN(C(=O)c2cn(Cc3cncn3CCCOCc3ccccc3)cc2-c2cccc3ccccc23)CC1', '> 7.60'),
  ('CCOCCCn1cncc1Cn1cc(-c2cccc3ccccc23)c([N+](=O)[O-])c1', '> 7.90'),
  ('COCCN(C)C(=O)c1cn(Cc2cncn2CCCN2CCOCC2)cc1-c1cccc2ccccc12', '> 7.60'),
  ('CN1CCN(C(=O)c2cn(Cc3c(I)ncn3Cc3ccc4c(c3)OCO4)cc2-c2cccc3ccccc23)CC1', '< 7.60'),
  ('COc1ccc(CCn2cncc2Cn2cc(-c3cccc4ccccc34)c([N+](=O)[O-])c2)cc1', '> 7.60'),
  ('Cc1ccc(CCn2cncc2Cn2cc(-c3cccc4ccccc34)c([N+](=O)[O-])c2)cc1', '< 7.30'),
  ('O=[N+]([O-])c1cn(Cc2cncn2Cc2ccc3ccccc3c2)cc1-c1cccc2ccccc12', '< 7.30'),
  ('O=C(c1cn(Cc2cncn2CCCOCc2ccccc2)cc1-c1cccc2ccccc12)N1CCOCC1', '> 7.60'),
  ('CCSCCCn1cncc1Cn1cc(C(=O)N(C)CCOC)c(-c2cccc3ccccc23)c1', '< 7.60'),
  ('O=[N+]([O-])c1cn(Cc2cncn2Cc2ccc(Br)cc2)cc1-c1cccc2ccccc12', '< 7.60'),
  ('O=[N+]([O-])c1cn(Cc2cncn2Cc2ccc3c(c2)OCO3)cc1-c1cccc2ccccc12', '< 7.00');
